Test system: MDA-MB-231 breast
ASSAY_DETAILS: NCI-60 one-dose screen, 48 h (100 = growth as untreated, 0 = no growth, -100 = all killed)
RUN_CONDITIONS: 10 µM unless noted
Procedure: Cells are grown in 96 well plates and exposed to the test compound for 48 hours. Compounds are tested at a single concentration, which is 10^-5 M for most compounds. The reported endpoint is percent growth (GI% or GIPRCNT), where numbers from 0 - 100% represent growth inhibition, and numbers from -100% - 0 represent cell death. For example, a value of 40 represents 60% growth inhibition. A value of 0 means no net growth occurred over the course of the experiment. […]
About 83,000 compounds went through this panel and 20% of them were active in at least one assay; those are over-represented in the sample as a whole.
Please provide measured growth for the entries that follow.
Answers are plain numbers, in %.

Consider the following illustrative entries.
{"MOLECULE": "CCCCCCN(C)Cc1ccc(OCCOc2ccc(CN(C)CCCCCC)cc2)cc1", "RESULT": 4.17}
{"MOLECULE": "COc1ccc(C(O)c2cc3c(N)c(C(=O)Nc4ccc(Cl)cc4)sc3nc2C)cc1 (stereo unspecified)", "RESULT": 41.8}
{"MOLECULE": "CC(O)/C=C/C=C/C(O)CC/C=C/C(=O)NCC(C)(C)O (stereo unspecified)", "RESULT": 111}
{"MOLECULE": "COc1cc(OC)c(/C=C/C(=O)c2ccc(Nc3ncnc4ccccc34)cc2)c(OC)c1", "RESULT": -19.9}
{"MOLECULE": "CC1=NNC(=O)C1CCC(=O)N/N=C(\\C)c1ccc2ccccc2c1 (stereo unspecified)", "RESULT": 111}

# batch size: 8; output growth per entry
1. O=C1/C(=C\c2cn(Cc3ccccc3)c3ccc(Br)cc23)c2ccccc2N1c1c(Cl)cccc1Cl
2. Cc1ccc2[nH]c(=S)n(-c3ccc(S(=O)(=O)Nc4ccc(Cl)nn4)cc3)c(=O)c2c1
3. CCCc1cc2c(cc1Br)OCO2
4. COc1ccc(Nn2c(SCC(=O)Nc3nc(-c4ccc(Cl)cc4)cs3)nc(C)c2C)cc1
5. Clc1ccc(N2N=C(c3cccc(Nc4ccncc4)c3)CC2c2ccc(Br)cc2)cc1 (stereo unspecified)
6. O=C(N/N=C/c1ccc(O)c(O)c1)c1sc2ccccc2c1Cl
7. CC(C)Cc1ccc(C(C)C(=O)NCc2c[nH]c3ccc(Cl)cc23)cc1 (stereo unspecified)
8. COc1ccc(Cl)cc1NC(=O)c1c(NC(=O)C(F)(F)C(F)(F)F)sc2c1CCCCC2

98
101
113
79.7
31.8
101
82.2
-18.6

Would you mind listing growth for each of the following molecules?
1. O=C(N/N=C/c1cccc(O)c1)c1ccccc1Nc1cccc(C(F)(F)F)c1
2. COc1ccc(/C=C(/c2ccccc2)[N+](=O)[O-])cc1
3. Cc1cc2cc3cc(C)c(N)cc3[n+](C)c2cc1N
4. Nc1ncc(C#Cc2cncc(NC(=O)c3cccc(C(F)(F)F)c3)c2)c2cccnc12
5. CN(C)C(=O)OCc1nc2c(N3CCOCC3)nc(-c3ccccc3)nc2n1C
6. O=C(c1ccccc1)N1N=C(c2ccc(-n3ccc(C(F)(F)F)n3)cc2)CC1c1ccc[nH]1 (stereo unspecified)

1: 73.8; 2: -49.3; 3: 20.2; 4: 36; 5: -86.5; 6: 97.6

Can you give me growth for all of these, one by one?
1. O=C(Nc1ccc2ncnc(Nc3ccc(Oc4cccc(F)c4)c(Cl)c3)c2c1)c1ccc(CNCCO)cc1
2. Cc1cccc(Oc2ccc(Nc3ncnc4ccc(NC(=O)CNCCO)cc34)cc2Cl)c1

-67.2
74.3
